Molecular target: human α4β7 integrin (Homo sapiens, UniProt P13612+P26010)
Construct: expressed in transfected cells; host or cells: K562 cells, stably transfected
Sequence (P13612 34-1032): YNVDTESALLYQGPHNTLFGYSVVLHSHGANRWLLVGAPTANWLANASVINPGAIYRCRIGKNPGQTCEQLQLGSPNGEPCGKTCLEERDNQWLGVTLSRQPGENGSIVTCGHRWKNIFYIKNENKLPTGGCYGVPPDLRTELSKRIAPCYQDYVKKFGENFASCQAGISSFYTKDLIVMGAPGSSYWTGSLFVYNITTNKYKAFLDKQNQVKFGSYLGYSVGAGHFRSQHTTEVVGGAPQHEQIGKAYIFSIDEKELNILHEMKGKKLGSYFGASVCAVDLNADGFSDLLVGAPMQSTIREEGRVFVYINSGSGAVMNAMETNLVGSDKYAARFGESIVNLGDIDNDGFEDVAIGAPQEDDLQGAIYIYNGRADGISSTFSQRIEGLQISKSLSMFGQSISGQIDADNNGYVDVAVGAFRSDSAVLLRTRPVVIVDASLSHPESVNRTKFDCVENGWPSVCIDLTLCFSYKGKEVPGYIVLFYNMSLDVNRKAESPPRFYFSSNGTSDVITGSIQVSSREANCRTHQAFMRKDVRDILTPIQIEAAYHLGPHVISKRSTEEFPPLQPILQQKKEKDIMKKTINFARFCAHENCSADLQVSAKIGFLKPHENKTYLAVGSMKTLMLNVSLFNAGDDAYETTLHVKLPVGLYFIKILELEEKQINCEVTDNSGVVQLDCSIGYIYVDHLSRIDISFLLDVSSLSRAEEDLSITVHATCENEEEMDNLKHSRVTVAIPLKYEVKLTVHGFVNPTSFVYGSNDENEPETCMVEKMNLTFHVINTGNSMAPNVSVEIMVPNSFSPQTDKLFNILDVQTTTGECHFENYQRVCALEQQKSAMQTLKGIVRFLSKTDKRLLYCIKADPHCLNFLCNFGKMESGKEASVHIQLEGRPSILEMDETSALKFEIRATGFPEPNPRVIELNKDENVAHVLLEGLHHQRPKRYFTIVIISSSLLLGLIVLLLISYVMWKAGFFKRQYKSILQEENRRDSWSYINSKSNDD
Sequence (P26010 20-798): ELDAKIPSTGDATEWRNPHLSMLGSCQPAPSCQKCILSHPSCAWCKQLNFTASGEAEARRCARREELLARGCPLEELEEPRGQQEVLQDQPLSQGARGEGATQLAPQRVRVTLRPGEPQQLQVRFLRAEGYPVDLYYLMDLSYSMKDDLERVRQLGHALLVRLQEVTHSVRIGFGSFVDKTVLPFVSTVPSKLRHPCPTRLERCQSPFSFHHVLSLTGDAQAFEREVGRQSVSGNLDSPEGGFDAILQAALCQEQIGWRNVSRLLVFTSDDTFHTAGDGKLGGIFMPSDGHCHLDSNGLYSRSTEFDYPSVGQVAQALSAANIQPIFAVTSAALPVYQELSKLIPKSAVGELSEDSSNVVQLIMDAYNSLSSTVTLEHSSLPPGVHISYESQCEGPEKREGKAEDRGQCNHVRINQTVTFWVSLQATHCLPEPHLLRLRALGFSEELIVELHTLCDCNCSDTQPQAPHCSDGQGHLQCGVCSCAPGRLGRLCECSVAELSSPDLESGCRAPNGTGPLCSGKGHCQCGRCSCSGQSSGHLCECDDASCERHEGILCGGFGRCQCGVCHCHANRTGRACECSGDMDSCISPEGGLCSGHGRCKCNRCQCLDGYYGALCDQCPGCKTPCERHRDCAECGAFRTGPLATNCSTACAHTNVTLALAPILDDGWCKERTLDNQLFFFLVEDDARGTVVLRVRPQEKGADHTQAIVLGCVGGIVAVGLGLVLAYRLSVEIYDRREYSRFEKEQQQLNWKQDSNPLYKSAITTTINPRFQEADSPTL
Assay: α4β7-K562 Cell Adhesion Assay (α4β7 Mediated Adhesion/MAdCAM-1)
Type: cell-based
Conditions: α4β7-K562 cell adhesion to hMAdCAM-1; read-out: α4β7 IC50
Assign IC50 to each entry below.
Lab book: enter the figure in µM, no units written.

Short answer on human α4β7 integrin (Homo sapiens, UniProt P13612+P26010) for "COc1cnn(C)c(=O)c1-c1ccc(C[C@H](NC(=O)C(C)(C)NC(N)=O)C(=O)O)cc1" , IC50: 0.089

Short answer on human α4β7 integrin (Homo sapiens, UniProt P13612+P26010) for "COc1cnn(C)c(=O)c1-c1ccc(C[C@H](NC(=O)C(C)(C)NC2CCC3(CC2)OCCO3)C(=O)O)cc1" , IC50: 0.263

Short answer on human α4β7 integrin (Homo sapiens, UniProt P13612+P26010) for "CN(C)CCOc1cnn(C)c(=O)c1-c1ccc(C[C@H](NC(=O)c2c(Cl)cccc2Cl)C(=O)O)cc1" , IC50: 0.271

Short answer on human α4β7 integrin (Homo sapiens, UniProt P13612+P26010) for COc1cnn(C)c(=O)c1-c1ccc(CC(NC(=O)C(C(C)C)n2c(C)cc(C(=O)c3ccccc3)c2C)C(=O)O)cc1 (centres unmarked) , IC50: 0.529

Short answer on human α4β7 integrin (Homo sapiens, UniProt P13612+P26010) for "COc1cnn(C)c(=O)c1-c1ccc(C[C@H](NC(=O)c2c(Cl)c[n+]([O-])cc2Cl)C(=O)O)cc1" , IC50: 0.002

Short answer on human α4β7 integrin (Homo sapiens, UniProt P13612+P26010) for "COc1cnn(C)c(=O)c1-c1ccc(C[C@H](NC(=O)C2(NC(=O)OC(C)(C)C)CCCC2)C(=O)O)cc1" , IC50: 0.115

Short answer on human α4β7 integrin (Homo sapiens, UniProt P13612+P26010) for "Cn1ncc(OCc2ccccc2)c(-c2ccc(C[C@H](NC(=O)c3c(Cl)cccc3Cl)C(=O)O)cc2)c1=O" , IC50: 0.017

Short answer on human α4β7 integrin (Homo sapiens, UniProt P13612+P26010) for "COc1cnn(C)c(=O)c1-c1ccc(C[C@H](NC(=O)[C@H](NC2CCCCC2)C(C)C)C(=O)O)cc1" , IC50: 0.005

Short answer on human α4β7 integrin (Homo sapiens, UniProt P13612+P26010) for "COc1cnn(C)c(=O)c1-c1ccc(C[C@H](NC(=O)C2(O)CC2)C(=O)O)cc1" , IC50: 0.64

Short answer on human α4β7 integrin (Homo sapiens, UniProt P13612+P26010) for COc1cnn(C)c(=O)c1-c1ccc(CC(NC(=O)C2CCCN2)C(=O)O)cc1 (mixture of isomers) , IC50: 0.478

Short answer on human α4β7 integrin (Homo sapiens, UniProt P13612+P26010) for "CC(C)COC(=O)N[C@@H](Cc1ccc(-c2c(OCC(C)C)cnn(C)c2=O)cc1)C(=O)O" , IC50: 0.082

Short answer on human α4β7 integrin (Homo sapiens, UniProt P13612+P26010) for "CC(C)Oc1cnn(C)c(=O)c1-c1ccc(C[C@H](NC(=O)c2c(Cl)cccc2Cl)C(=O)O)cc1" , IC50: 0.027

Short answer on human α4β7 integrin (Homo sapiens, UniProt P13612+P26010) for "Cn1ncc(N2CCCC2)c(-c2ccc(C[C@H](NC(=O)c3c(Cl)cccc3Cl)C(=O)O)cc2)c1=O" , IC50: 0.016

Short answer on human α4β7 integrin (Homo sapiens, UniProt P13612+P26010) for "COc1cnn(C)c(=O)c1-c1ccc(C[C@H](NC(=O)C23CCC(CC2)CN3C(=O)CCc2ccco2)C(=O)O)cc1" , IC50: 0.094

Short answer on human α4β7 integrin (Homo sapiens, UniProt P13612+P26010) for "COc1cnn(C)c(=O)c1-c1ccc(C[C@H]2C(=O)OCN2C(=O)c2c(Cl)cccc2Cl)cc1" , IC50: 0.093

Short answer on human α4β7 integrin (Homo sapiens, UniProt P13612+P26010) for "COc1cnn(C)c(=O)c1-c1ccc(C[C@H](NC(=O)c2ccc[nH]2)C(=O)O)cc1" , IC50: 0.041

Short answer on human α4β7 integrin (Homo sapiens, UniProt P13612+P26010) for COc1cnn(C)c(=O)c1-c1ccc(CC(NC(=O)C(NC(=O)OC(C)(C)C)C(C)C)C(=O)O)cc1 (mixture of isomers) , IC50: 0.018

Short answer on human α4β7 integrin (Homo sapiens, UniProt P13612+P26010) for "COc1cnn(C)c(=O)c1-c1ccc(C[C@H](NC(=O)C2(NC3CCCCC3)CCOCC2)C(=O)O)cc1" , IC50: 0.248

Short answer on human α4β7 integrin (Homo sapiens, UniProt P13612+P26010) for COc1cnn(C)c(=O)c1-c1ccc(CC(NC(=O)C2CCCN2C(=O)OC(C)(C)C)C(=O)O)cc1 (mixture of isomers) , IC50: 1.28

Short answer on human α4β7 integrin (Homo sapiens, UniProt P13612+P26010) for "Cn1ncc(OC2CCCCC2)c(-c2ccc(C[C@H](NC(=O)c3c(Cl)cccc3Cl)C(=O)O)cc2)c1=O" , IC50: 0.011

Short answer on human α4β7 integrin (Homo sapiens, UniProt P13612+P26010) for "COc1cnn(CCN2CCOCC2)c(=O)c1-c1ccc(C[C@H](NC(=O)[C@H](N)C(C)C)C(=O)O)cc1" , IC50: 4.65

Short answer on human α4β7 integrin (Homo sapiens, UniProt P13612+P26010) for "COc1cnn(C)c(=O)c1-c1ccc(C[C@H](NC(=O)C(C)(C)NC(C)C)C(=O)O)cc1" , IC50: 0.239

Short answer on human α4β7 integrin (Homo sapiens, UniProt P13612+P26010) for "Cn1ncc(OCC2CC2)c(-c2ccc(C[C@H](NC(=O)c3c(Cl)cccc3Cl)C(=O)O)cc2)c1=O" , IC50: 0.044

Short answer on human α4β7 integrin (Homo sapiens, UniProt P13612+P26010) for "CCOc1cnn(C(C)(C)C)c(=O)c1-c1ccc(C[C@H](NC(=O)c2c(Cl)cccc2Cl)C(=O)O)cc1" , IC50: 0.23

Short answer on human α4β7 integrin (Homo sapiens, UniProt P13612+P26010) for "Cn1nc2c(c(-c3ccc(C[C@H](NC(=O)c4c(Cl)cccc4Cl)C(=O)O)cc3)c1=O)NCCO2" , IC50: 0.002

Short answer on human α4β7 integrin (Homo sapiens, UniProt P13612+P26010) for "COc1cnn(C)c(=O)c1-c1ccc(C[C@H](NC(=O)C23CCC(CC2)CN3C(=O)OC(C)(C)C)C(=O)O)cc1" , IC50: 0.127

Short answer on human α4β7 integrin (Homo sapiens, UniProt P13612+P26010) for CNC(C(=O)NC(Cc1ccc(-c2c(OC)cnn(C)c2=O)cc1)C(=O)O)C(C)C (single isomer, unassigned) [Cpd 123] , IC50: 0.118

Short answer on human α4β7 integrin (Homo sapiens, UniProt P13612+P26010) for COc1cnn(C)c(=O)c1-c1ccc(C[C@H](NC(=O)C(C(C)C)n2c(C)ccc2C)C(=O)O)cc1 (mixture of isomers) , IC50: 0.007

Short answer on human α4β7 integrin (Homo sapiens, UniProt P13612+P26010) for "COc1cnn(C)c(=O)c1-c1ccc(C[C@H](NC(=O)c2c(Cl)cccc2Cl)C(=O)OCCCl)cc1" , IC50: 0.028

###

Biological target: human α4β7 integrin (Homo sapiens, UniProt P13612+P26010)
Construct: expressed in transfected cells; host or cells: K562 cells, stably transfected
Experiment: α4β7-K562 Cell Adhesion Assay (α4β7 Mediated Adhesion/MAdCAM-1)
Format: cell-based
Settings: α4β7-K562 cell adhesion to hMAdCAM-1; read-out: α4β7 IC50
Description: α4β7-K562 Cell Adhesion Assay (α4β7 Mediated Adhesion/MAdCAM-1) M2 anti-FLAG Antibody Coated 96-well plates (Sigma) were coated for 1 hour at 4° C. with 2-8 μl/well recombinant FLAG-hMAdCAM-1 contained in 100 μL of Dulbecco's PBS, pH 7.4, with 1% BSA and 1 mM Mn ^+2 (PBS-BSA-Mn). Plates were washed once with PBS-BSA-Mn. Buffer was removed and compounds to be tested (50 μL) were added at 2× concentration. […]
Assign IC50 to each entry below.
Lab book: enter the figure in nM, no units written.

compound "COc1cnn(C)c(=O)c1-c1ccc(C[C@H](NC(=O)[C@@H]2C3CCC(CC3)N2C(=O)CCC(C)C)C(=O)O)cc1" , IC50 observed: 60

compound "COCCOCCOC(=O)[C@H](Cc1ccc(-c2c(OC)cnn(C)c2=O)cc1)NC(=O)c1c(Cl)cccc1Cl" , IC50 observed: 49

compound "COc1cnn(C)c(=O)c1-c1ccc(C[C@H](NC(=O)C2(c3ccc(F)cc3)CCCC2)C(=O)O)cc1" , IC50 observed: 152

compound "COc1cnn(C)c(=O)c1-c1ccc(C[C@H](NC(=O)[C@@H]2C3CCC(CC3)N2C(=O)CCc2ccccc2)C(=O)O)cc1" , IC50 observed: 47

compound "COc1cnn(C)c(=O)c1-c1ccc(C[C@H](NC(=O)C23CCC(CC2)CN3)C(=O)O)cc1" , IC50 observed: 60

compound "COc1cnn(C)c(=O)c1-c1ccc(C[C@H](NC(=O)CC(C)C)C(=O)O)cc1" , IC50 observed: 119

compound "COc1cnn(C)c(=O)c1-c1ccc(C[C@H](NC(=O)[C@@H](C)N(C)C(=O)Cc2ccsc2)C(=O)O)cc1" , IC50 observed: 14

compound "COc1cnn(C)c(=O)c1-c1ccc(C[C@H](NC(=O)C2(N)CCOCC2)C(=O)O)cc1" , IC50 observed: 97

compound "COc1cnn(C)c(=O)c1-c1ccc(C[C@H](NC(=O)c2n[nH]c3ccccc23)C(=O)O)cc1" , IC50 observed: 865

compound "COc1cnn(C)c(=O)c1-c1ccc(C[C@H](NC(=O)CN(C)C(=O)OCc2ccccc2)C(=O)O)cc1" , IC50 observed: 56

compound COc1cnn(C)c(=O)c1-c1ccc(CC(NC(=O)C(NC(=O)Cc2ccsc2)C(C)C)C(=O)O)cc1 (stereo not drawn) , IC50 observed: 71

compound "COc1cnn(C)c(=O)c1-c1ccc(C[C@H](NC(=O)NC2CCCCC2)C(=O)O)cc1" , IC50 observed: 852

compound COc1cnn(C)c(=O)c1-c1ccc(CC(NC(=O)C(C(C)C)n2c(C)ccc2C)C(=O)O)cc1 (stereo not drawn) [Cpd 215] , IC50 observed: 305

compound "COc1cnn(C)c(=O)c1-c1ccc(C[C@H](NC(=O)C2(OCc3ccccc3)CC2)C(=O)O)cc1" , IC50 observed: 92
